Sourced from ChEMBL document CHEMBL1201862

Test system: UO-31
assay_summary: NCI tumour cell line growth inhibition, 48 h
Activity calls are given as the source filed them. Cut-off read from the data, not from the text of the source: active = GI50 up to about 1.1 µM and inactive = higher.
Would you mind answering with one of these outcomes? active, inactive

>  <compound>
Cc1cccc2nc3cccc(C(=O)NCCC[N+](C)(CCCNC(=O)c4cccc5nc6cccc(C)c6nc45)Cc4ccc([N+](=O)[O-])n4C)c3nc12

>  <class_label>
active

$$$$

Request: Check the results log: what was the call for CN(CCO)CCC1COc2ccccc2O1 (stereo unspecified) ?
Response: inactive

Request: GET /call?item= COc1cc(O)c2c(c1)O[C@@H]1OCC[C@H]21 returns the recorded outcome of this test.
Response: inactive

Request: State the result this test recorded for C[C@@H](CC(O)C(O)C(C)(C)O)C1CCC23CC12CCC1[C@@]2(C)CCC(O)C(C)(C)C2CC(OC2OC(CO)C(O)C(O)C2O)[C@]13C (stereo partly specified) .
Response: inactive

Request: Called result for CCOC(=O)NC(=O)c1cn(CCCOC(=O)NCCCCCCNC(=O)OCCCn2c(=O)c(C(=O)NC(=O)OCC)cn(C)c2=O)c(=O)n(C)c1=O
Response: inactive

Request: Identify the outcome logged in this assay for the compound shown: COc1ccc2c3c(c(=O)n(C)c2c1OC)C=CC(C)(C)O3
Response: inactive

---

GI50 for assorted compounds
System: M19-MEL
assay_summary: NCI tumour cell line growth inhibition, 48 h
Calls of active or inactive are those of the source. Cut-off read from the data, not from the text of the source: active = GI50 up to about 1.1 µM and inactive = higher.

>  <compound>
CC(=O)OC1COC(N2C(=O)C(=O)c3cc(Br)c([N+](=O)[O-])cc32)C(OC(C)=O)C1OC(C)=O (stereo not drawn)

>  <result_value>
21.2 µM (inactive)

$$$$
>  <compound>
CCN(CC)CC(C(=O)Nc1c(C)cccc1C)/C(C)=N\NC(=S)NN (stereo not drawn)

>  <result_value>
> 100 µM (inactive)

$$$$
>  <compound>
CCc1ccccc1NC(=O)/C(CC(=O)c1c(C)[n+]([O-])c2ccccc2[n+]1[O-])=N\NS(=O)(=O)c1ccc(C)cc1

>  <result_value>
16 µM (inactive)

$$$$
>  <compound>
C[C@H]1[C@@H]2C[C@@H]3O[C@@]34[C@H]3CCC5Cc6nc7c(nc6C[C@@]5(C)[C@]3(O)CC(=O)[C@@]24CO[C@]12OC(C)(C)C[C@@H]2O)CC1CC[C@@H]2C3=C[C@H]4O[C@@]5(OC(C)(CO)C[C@@H]5O)[C@H](C)[C@@]4(O)[C@]3(C)[C@@H](O)CC2[C@]1(C)C7 (stereo partly drawn)

>  <result_value>
2.77 µM (inactive)

$$$$
>  <compound>
COC(=O)c1c(OC)cccc1C(=O)O

>  <result_value>
> 100 µM (inactive)

$$$$

Request: Jot down GI50 (M19-MEL) of Cn1c2ccccc2c2ccc3c(c21)C(=O)C=CC3=O .
Response: 10.5 µM (inactive)

Request: Please report GI50 with M19-MEL for item COc1ccc(C2ON(c3ccccc3)CC=C2C)cc1 (stereo not drawn) .
Response: 43.2 µM (inactive)

Request: Under M19-MEL: report GI50 of COCC(O)CN1C(N)=NC(O)C1O (stereo not drawn) .
Response: > 100 µM (inactive)

---

System: HCC 2998
assay_summary: NCI tumour cell line growth inhibition, 48 h
Active and inactive are the calls of the source. Rule as the data show it: active = GI50 up to about 1.1 µM and inactive = higher.
Result category, one only: true for active, false for inactive

Sample answers from the record:
>  <compound>
N#CC1(C#N)C(c2ccccc2)C=CC12OCCCO2 (stereo not drawn)

>  <assay_target>
HCC 2998

>  <class_label>
false

$$$$
>  <compound>
C[C@H]1[C@@H]2C[C@@H]3O[C@@]34[C@H]3CCC5Cc6nc7c(nc6C[C@@]5(C)[C@]3(O)CC(=O)[C@@]24CO[C@]12OC(C)(C)C[C@@H]2O)CC1CC[C@@H]2C3=C[C@H]4O[C@@]5(OC(C)(CO)C[C@@H]5O)[C@H](C)[C@@]4(O)[C@]3(C)[C@@H](O)CC2[C@]1(C)C7 (stereo partly drawn)

>  <assay_target>
HCC 2998

>  <class_label>
true

$$$$
>  <compound>
c1ccc([P+](c2ccccc2)(c2ccccc2)C2c3ccccc3-c3ccccc32)cc1

>  <assay_target>
HCC 2998

>  <class_label>
false

$$$$
>  <compound>
C/C(=N\NC(N)=S)c1cccs1.OB(O)c1ccccc1

>  <assay_target>
HCC 2998

>  <class_label>
false

$$$$
>  <compound>
CC(=O)OC(C(=O)NNC(=O)OC(C)(C)C)c1ccccc1 (stereo not drawn)

>  <assay_target>
HCC 2998

>  <class_label>
false

$$$$
>  <compound>
COc1ccc([I+]c2ccc(OC)cc2)cc1

>  <assay_target>
HCC 2998

>  <class_label>
false

$$$$

Request: Kindly provide the recorded test outcome for the following compound: Cc1nc2c(Cl)cc(Cl)cc2c(Cl)c1CCCl
Response: false

Request: Hey, what did the test say about CC[N+]1(C)CCC(O)(/C=C/c2ccc(OC)cc2)C(C(=O)/C=C/c2ccc(OC)cc2)C1 (stereo not drawn) ?
Response: false
